Test system: Mycobacterium tuberculosis
Experiment: Antimycobacterial activity against Mycobacterium tuberculosis with deazaflavin-dependent nitroreductase mutant
Assay type: functional
Quantity Kind: MIC

Check out these entries, answers already filled in.
O=[N+]([O-])c1cn2c(n1)C=C[C@@H](OCc1ccc(OC(F)(F)F)cc1)C2    >100 µM
Cc1nc([N+](=O)[O-])cn1CCOCc1ccc(OC(F)(F)F)cc1    >100 µM
CO[C@@H]1COc2nc([N+](=O)[O-])cn2C1    >100 µM
O=[N+]([O-])c1cn2c(n1)CC[C@@H](OCc1ccc(OC(F)(F)F)cc1)C2    >100 µM
Cc1nc([N+](=O)[O-])cn1CCO    >100 µM

Incoming: Report MIC for `COc1ncc([N+](=O)[O-])n1CCO` please.
Outgoing: >100 µM

----------
Each item that follows carries a reported MAC.
Test system: Mycobacterium tuberculosis
Test: Antimycobacterial activity against Mycobacterium tuberculosis with deazaflavin-dependent nitroreductase mutant under anaerobic condition
Format: functional

Check out these entries, answers already filled in.
COc1ncc([N+](=O)[O-])n1CCO    >500 µM
FC(F)(F)Oc1ccc(CO[C@@H]2COc3nccn3C2)cc1    >500 µM
O=[N+]([O-])c1cn2c(n1)OC[C@@H](OCc1ccc(OC(F)(F)F)cc1)C2    >500 µM

Incoming: Report MAC for `O=[N+]([O-])c1cnc2n1C[C@@H](O)CC2` please.
Outgoing: >100 µM

Incoming: Now the same for `Cc1nc([N+](=O)[O-])cn1CCOCc1ccc(OC(F)(F)F)cc1`
Outgoing: >500 µM

Origin of values: ChEMBL document CHEMBL1140917
